B1: HDAC6 (parent)
chain: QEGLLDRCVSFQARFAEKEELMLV

Variants of: B1
Assay: protein stability index of a GFP-peptide fusion (GPS, HEK-293T) (PSI 1-6); higher = more stable;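 further: lentivirally expressed fusions sorted by FACS into six bins by GFP to DsRed ratio, PSI derived from sequencing read proportions per bin multiplied by bin number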
Conditions: c terminus: a fixed tail appended
property_measured: protein stability index

query: What measured protein stability index goes with A16Q ?
result: 1.93

query: Given V24H , state its recorded protein stability index.
result: 2.82

query: Query (variant): Q12N ; field requested: protein stability index
result: 2.65

query: # input variant: F15R ; wanted: its protein stability index
result: 2.58

query: I would be grateful if you could share the reported protein stability index for A13L .
result: 1.38

query: So what does the record say about protein stability index for E19L ?
result: 1.49

query: Suppose we examine the variant E20N ; what protein stability index value has been reported?
result: 1.84

query: Please report the recorded protein stability index for E2P .
result: 2.56

query: What value of protein stability index has been reported for the following variant? L5Y
result: 1.79

query: What does the data say about its protein stability index? Entry: Q12W
result: 1.08

query: Could you tell me which protein stability index is on file for F11R ?
result: 2.66

query: Look up protein stability index: Q1F
result: 1.18

query: Any idea what protein stability index was measured for E20A ?
result: 2.37

query: Bench note: what protein stability index did L21N show?
result: 3.78

query: Please report the recorded protein stability index for F15Q .
result: 2.55

query: Request the reported protein stability index associated with E20H
result: 2.52

query: // protein stability index lookup, key: E20T
result: 2.14

query: Requested field: protein stability index. Item: F11G
result: 2.43

query: Looking for the measured protein stability index of E19N , can you help?
result: 1.6

query: # lookup: protein stability index of R7E
result: 1.93

query: Query: protein stability index; subject: K18T
result: 2.66

query: So what does the record say about protein stability index for C8R ?
result: 1.98

Measured values drawn from the supplement of paper PMC10567573 for this set.
